- run.description: protein stability index of a GFP-peptide fusion (yeast GPS) (PSI 1-4); higher = more stable; sorted into four equal gates, so the index is relative within each strain
- protocol.conditions: san1∆
Please respond with reported protein stability index for every item in the list.
Answer with a number only.

Query block: Give protein stability index for AAEKSFKPPKNKYKVVR [SEC65]
Result block: 3.05

Query block: For the sequence LARGLRESTKALTRGEA [RPS12] , report protein stability index.
Result block: 2.94

Query block: Provide one value: measured protein stability index of SPTENGVFDPASYSKYL [RPL22B]
Result block: 3.05

Query block: # return recorded protein stability index for entry LETLEHNGAPHHAIEEA [RPO21]
Result block: 2.94

Query block: Supply measured protein stability index of TSGEAAALGMGLCMLGT [RPN2] in your reply.
Result block: 3.08

Query block: Quickly give me recorded protein stability index for AYSMGAQNQGGQVSMSQ [PGD1]
Result block: 3.02

Query block: Consider the sequence IDHINEESWEKVVEFAI [SCL1] and give its recorded protein stability index.
Result block: 3.03

Query block: Annotate the sequence KYRKRQLVTREAQIKDW [FAS2] with its measured protein stability index.
Result block: 2.93

Query block: Tell us which protein stability index value is on record for LTYDKDLTNNPQDDDSQ [MTR3]
Result block: 3

Query block: Complete the entry with protein stability index for PAFSFGAKPEEKKDDNS [YJL041W/NSP1]
Result block: 2.98

Query block: Indicate the recorded protein stability index value for this sequence: STKLSRPFDSFGKLLQA [ITC1]
Result block: 2.35

Query block: Find the measured protein stability index of YFWHKIWRKVPGDVLDK [SNU114] and report it.
Result block: 1.51

Query block: Dear colleague, please send me the reported protein stability index for YFSNKTSTGIIRCHRED [POP5] when you can.
Result block: 2.62

Query block: Quickly give me recorded protein stability index for HVLSRLSYISALGMMTR [RET1]
Result block: 1.24

Query block: # return recorded protein stability index for entry KSLPLLITVMEKSPDPT [YCS4]
Result block: 1.92

Query block: Give the reported protein stability index for this sequence. TLAYDRGHRIRREFKQY [PRP8]
Result block: 2.35

Query block: Quick one: give measured protein stability index for YGIPLEFYNEMHRPVHF [PRP8]
Result block: 1.98

###

- run.description: protein stability index of a GFP-peptide fusion (yeast GPS) (PSI 1-4); higher = more stable; sorted into four equal gates, so the index is relative within each strain
- protocol.conditions: doa10∆
Exercise: state measured protein stability index for each of the sequences provided.
Hey, just send me the number, nothing else.

Query block: Tell me measured protein stability index for FGKLAFPTRLGQGYRKV [YJL039C/NUP192] please.
Result block: 2.98

Query block: Specify reported protein stability index for the sequence shown: FTKPPANETDKRPTPPS [YOR098C/NUP1]
Result block: 3.03

Query block: Using known records, supply protein stability index for KARTNLHQHVVLKCLKS [RPC34]
Result block: 2.91

Query block: State its protein stability index for this sequence: KKLESQESLVKLFTTNE [RPN5]
Result block: 2.94

Query block: Query protein stability index for CRDSDDHKRFIVFHNEF [DIS3]
Result block: 3.02

Query block: Tell me protein stability index reported for RMSSEEVNSLLLQVNKT [GRR1]
Result block: 3.03

Query block: Identify measured protein stability index associated with GFINQKNLKPQEQLKNV [YIL149C/MLP2]
Result block: 3.09

###

- run.description: protein stability index of a GFP-peptide fusion (yeast GPS) (PSI 1-4); higher = more stable; sorted into four equal gates, so the index is relative within each strain
- protocol.conditions: doa10∆
For each entry below, report its protein stability index value.
Write the value as a bare number.

Query block: Give the measured protein stability index for RYVYAHFPINVNIVEKD [RPL9A]
Result block: 2.04

Query block: Give recorded protein stability index. APHDSEATLLTNSNNGS [SNF5]
Result block: 3.05

Query block: Specify protein stability index for YLKHNSIAEEIPIAIVL [RET1] and stop.
Result block: 2.65

Query block: // Input: ANKEKKRAEKAARKAEK [RPL24B] . Output its protein stability index only.
Result block: 3.34

Query block: Complete the entry with protein stability index for KTDQEEEREGTDQSTEE [CSL4]
Result block: 3.12

Query block: Read off the recorded protein stability index for FTFGLTVVQVYDNGQVF [RPP0]
Result block: 1.26

Query block: Answer with reported protein stability index of DHYESNQLVAKLLLLRI [SRB8]
Result block: 2.84

Query block: Please give the documented protein stability index of PLYVMDEIDAALDFRNV [SMC4]
Result block: 2.5

Query block: Query protein stability index for VIQDEVLAHRIGLVPLK [RPC40]
Result block: 2.94

Query block: Query protein stability index for PLLLVGLDKFSNIDIRV [RPS16A]
Result block: 1.83

Query block: Supply recorded protein stability index for PLYARYINVNPQEETIT [ECM29] here.
Result block: 2.74

Query block: Retrieve protein stability index measured for TRSKRLSQVYPTLVRSV [CSN12] and print it.
Result block: 1.72

Query block: Tell me measured protein stability index for ACDPSEIEPILMEIHNI [RGR1] please.
Result block: 2.82

Query block: Please supply the value of reported protein stability index for the item EWFEQNNSEQDQEIVIQ [ISW2]
Result block: 3.04

Query block: Give recorded protein stability index. DMKEYDSDKGSKLNELK [SMC2]
Result block: 3.25

Query block: Give the measured protein stability index for FTIQSFVSSLSNTSTLK [BRR2]
Result block: 1.83

Query block: Specify measured protein stability index for MQAIADSFSVPNRLVKE [PRE2] .
Result block: 2.94

Query block: Supply recorded protein stability index for HPYEYEIDHQEYSPEIL [RRP6] here.
Result block: 2.75

Query block: Tell us which protein stability index value is on record for NFEKPKNSSQLLNEWSH [RPN5]
Result block: 2.83

Query block: Note down protein stability index recorded for GLSMLAKLKELAEDVDD [RPC31]
Result block: 2.92

Query block: Quick one: give measured protein stability index for HNSVKRYQIMLPEQLKS [SNM1]
Result block: 1.16

Query block: Identify protein stability index associated with the sequence QSALSQIIRLFYSKNRL [ISW2]
Result block: 2.62

Query block: Annotate the sequence VKADVEKSLLPKIETNV [ISW2] with its measured protein stability index.
Result block: 3.03

Query block: Determine from records and report protein stability index for GQLTGIYRYKYKVMHQI [PRP8]
Result block: 2.9

Query block: Give reported protein stability index value for NIFKAEMDSVSKSMKFS [CSN9]
Result block: 2.58

Query block: Return reported protein stability index. Input sequence: SLDRVAWRTLVGVSHTN [CYT1]
Result block: 1.3

###

- run.description: protein stability index of a GFP-peptide fusion (yeast GPS) (PSI 1-4); higher = more stable; sorted into four equal gates, so the index is relative within each strain
- protocol.conditions: doa10∆
Returns True if the recorded protein stability index is greater than or equal to 3, and False otherwise.

Query block: Reported protein stability index reaches at least 3 for STTFADCPVVPADPDIL [RPC40] ?
Result block: False

Query block: # bool: protein stability index of YSYTTIVLSDQTQEFFL [YJL039C/NUP192] >= 3
Result block: False

Query block: Textbook exercise: given the entry ESITYQKIMILQRTILN [RGR1] , state whether its protein stability index is greater than or equal to 3.
Result block: False

Query block: Hi team, for HEFKLIVGKKIQEFLVV [GRR1] , is the recorded protein stability index at or above 3?
Result block: False

Query block: Form field: protein stability index at least 3? Entry: YFLKVTFLKYFGWLLSD [IRR1]
Result block: False

Query block: Check if protein stability index >= 3 (inclusive). Item: EEQKSSDTSKPAFTFGA [YJL041W/NSP1]
Result block: True

Query block: Quick check: does VRLPTKVLKISTRKTPN [RPS20] have protein stability index greater than or equal to 3?
Result block: False

Query block: Is protein stability index at least 3? Consider VQCHGSFATATCVTCHW [SIR2]
Result block: False

Query block: Threshold query (protein stability index >= 3) on NVPVHVSPAFRVQVGDI [RPS11A]
Result block: False

Query block: Say whether MDNKTPVTLAKVIKVLG [RPS28A] shows protein stability index of 3 or more.
Result block: False

Query block: Check the entry AMKELAEKKIPLVIRRY [RPO26] : does protein stability index equal or exceed 3?
Result block: False

Query block: Check this sequence for protein stability index at or above 3: LVAAFIASLERELILAK [YCG1]
Result block: False

Query block: Test whether the sequence KKIENTMLENITLRGVE [RPO21] records protein stability index of 3 or higher.
Result block: True

Query block: Can IRGAVGNSEAIPGLSAG [RTT102] be said to have protein stability index at or above 3?
Result block: True

Query block: Dear colleague, could you confirm whether ILQILDQDELVQPPLDK [SWP82] has protein stability index at or above 3?
Result block: False

Query block: Assess whether reported protein stability index for DPETTATQKESLEMVPK [RGR1] sits at 3 or higher.
Result block: True

Query block: Determine whether measured protein stability index meets or exceeds 3 for QVKKPRKQRVKKKTKKE [SWI1]
Result block: True

Query block: Threshold query (protein stability index >= 3) on SKLSKNISFYKLHVNWN [SIN4]
Result block: False

Query block: I'd appreciate it if you could say whether YIYSHVNKVPQNVAGDK [SWP82] has protein stability index at least equal to 3.
Result block: False

Query block: Determine whether measured protein stability index meets or exceeds 3 for VQLPILKIIYTGLCSFD [YJL039C/NUP192]
Result block: False

Query block: Please check the record SKQDVEALIEFIYDTEK [FAS2] and state if its protein stability index is at or above 3.
Result block: True

Query block: Decide: protein stability index of MGKKTFREWQYFKLSIT [POP8] >= 3?
Result block: False

Query block: Does the reported protein stability index for NKIIPNVGLCITIYDLL [RPC25] fall at or above the 3 mark?
Result block: False

Query block: Threshold query (protein stability index >= 3) on NIKPVEQHHINNLKNSG [GAL11]
Result block: False

Query block: Confirm if protein stability index reported for the sequence SLGFLQQSNKLHCCIQL [RPN3] is 3 or above.
Result block: False

Query block: Hi, just wondering whether YGKPTNQGVNELKYQRS [RPL15A] shows protein stability index of 3 or higher.
Result block: False

Query block: Does the sequence EDLLHYIEEKHPTIYES [POP4] have recorded protein stability index that is 3 or more?
Result block: True

Query block: Say whether LYLKVIPMDFIRNVLVT [SSN2] shows protein stability index of 3 or more.
Result block: False

Query block: Evaluate DFVRKGGLQKGKLVVSQ [SIR3] : protein stability index at minimum 3?
Result block: True

Query block: Does protein stability index meet or surpass 3 for ESITKAMEFIFGNSLIC [SMC2] ?
Result block: False

Query block: Dear colleague, could you confirm whether QNYRLDGRSFDQFRDVE [RRP45] has protein stability index at or above 3?
Result block: True

Query block: Is protein stability index for VRIHSIQVLTEASSLGY [IRR1] at or above 3?
Result block: False

Query block: Say whether ILNSYGVLKPDITFFGE [SIR2] shows protein stability index of 3 or more.
Result block: True

Query block: In plain terms: is recorded protein stability index at least 3 for SDSIELLKQYPKDSSST [YJR042W/NUP85] ?
Result block: False

Query block: Has IVDKYIGESARIIREMF [RPT4] a recorded protein stability index greater than or equal to 3?
Result block: False

Query block: Could you tell me if the measured protein stability index of MIIDEGHRMKNAQSKLS [SNF2] reaches 3 or more?
Result block: False

Query block: Evaluate LKLPADATTWRYSMSEQ [IRR1] : protein stability index at minimum 3?
Result block: False

Query block: Check this sequence for protein stability index at or above 3: LLLAAQIVSYCSNNKNS [SSN2]
Result block: False

Query block: hey, is protein stability index for this one >= 3? NQKIPDNVIVINHKINN [SIR3]
Result block: False

Query block: Please indicate if the recorded protein stability index for PLKIHRTPYLTSLKKIK [SWI1] meets or exceeds 3.
Result block: False
